Let's look at some compounds and their measured IC50.
# target desc: p38 alpha (Homo sapiens, UniProt Q16539)
# Sequence (Q16539 whole entry): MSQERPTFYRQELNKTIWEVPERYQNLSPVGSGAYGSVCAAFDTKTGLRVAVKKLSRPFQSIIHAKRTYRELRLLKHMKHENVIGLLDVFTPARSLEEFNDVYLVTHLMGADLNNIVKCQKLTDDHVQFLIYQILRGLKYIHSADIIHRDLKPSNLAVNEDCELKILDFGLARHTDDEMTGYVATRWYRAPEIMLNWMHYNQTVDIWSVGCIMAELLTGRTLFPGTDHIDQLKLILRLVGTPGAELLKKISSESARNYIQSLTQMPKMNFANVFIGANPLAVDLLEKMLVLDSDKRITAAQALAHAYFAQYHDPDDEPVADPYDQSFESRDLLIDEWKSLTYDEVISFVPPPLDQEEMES
# experimental details: P38 alpha enzyme inhibition assay (Alphascreen kinase activity assay)
# condition parameters: 100 pM p38 alpha, 2 hours preincubation at 25° C., 250 μM ATP, ATF-2 fusion protein; read-out: p38α inhibition

Below, 5 compounds whose answers are already recorded.
{"compound": "CN(CCNC(=O)c1nc(NC(=O)N[C@H]2CC[C@@H](Oc3ccc4nnc(C(C)(C)C)n4c3)c3ccccc32)cc(C(C)(C)C)n1)C1CC1", "IC50": "1 to 10 nM"}
{"compound": "CCC(CC)c1nnc2ccc(O[C@@H]3CC[C@H](NC(=O)Nc4cc(C(C)(C)C)nc(C(=O)NCCN(C)CCOC)n4)c4ccccc43)cn12", "IC50": "< 1 nM"}
{"compound": "CN(CCO)CCNC(=O)c1nc(NC(=O)N[C@H]2CC[C@@H](Oc3ccc4nnc(C(C)(C)C)n4c3)c3ccccc32)cc(C(C)(C)C)n1", "IC50": "< 1 nM"}
{"compound": "COC(C)(C)c1nnc2ccc(O[C@@H]3CC[C@H](NC(=O)Nc4cc(C(C)(C)C)nc(C(=O)NCC(C)(C)N5CCN(C)CC5)n4)c4ccccc43)cn12", "IC50": "1 to 10 nM"}
{"compound": "CN(C)C1(CNC(=O)c2nc(NC(=O)N[C@H]3CC[C@@H](Oc4ccc5nnc(C(C)(C)C)n5c4)c4ccccc43)cc(C(C)(C)C)n2)CCOCC1", "IC50": "1 to 10 nM"}

Supply measured IC50 of CC(C)(C)c1cc(NC(=O)N[C@H]2CC[C@@H](Oc3ccc4nnc(C5(C)CCCC5)n4c3)c3ccccc32)nc(C(=O)NCCN2CCCOCC2)n1 in your reply.
< 1 nM

Supply measured IC50 of CN(CCO)CCNC(=O)c1nc(NC(=O)N[C@H]2CC[C@@H](Oc3ccc4nnc(C5(C)CC5)n4c3)c3ccccc32)cc(C(C)(C)C)n1 in your reply.
< 1 nM

Supply measured IC50 of CC(C)(C)c1cc(NC(=O)N[C@H]2CC[C@@H](Oc3ccc4nnc(C(C)(C)C)n4c3)c3ccccc32)nc(C(=O)N2CCN(CCO)CC2)n1 in your reply.
1 to 10 nM

====

Let's look at some compounds and their measured IC50.
# target desc: p38 alpha (Homo sapiens)
# experimental details: P38 alpha enzyme inhibition assay (Alphascreen kinase activity assay)
# condition parameters: 100 pM p38 alpha, 2 hours preincubation at 25° C., 250 μM ATP, ATF-2 fusion protein; read-out: p38α inhibition
Counter-ions that a name gives are not always drawn.

Below, 2 compounds whose answers are already recorded.
{"compound": "CN(C)CCOCCNC(=O)c1nc(NC(=O)N[C@H]2CC[C@@H](Oc3ccc4nnc(C(C)(C)C)n4c3)c3ccccc32)cc(C(C)(C)C)n1", "IC50": "< 1 nM"}
{"compound": "CCC(CC)c1nnc2ccc(O[C@@H]3CC[C@H](NC(=O)Nc4cc(C(C)(C)C)nc(C(=O)NCC(C)(C)N5CC(OC)C5)n4)c4ccccc43)cn12 [Example 174, formate salt]", "IC50": "< 1 nM"}

Supply measured IC50 of COC1CN(CCNC(=O)c2nc(NC(=O)N[C@H]3CC[C@@H](Oc4ccc5nnc(C6(C)CC6)n5c4)c4ccccc43)cc(C(C)(C)C)n2)C1 in your reply.
< 1 nM

Supply measured IC50 of CC(C)(C)c1cc(NC(=O)N[C@H]2CC[C@@H](Oc3ccc4nnc(C5CCCC5)n4c3)c3ccccc32)nc(C(=O)NCCO)n1 in your reply.
< 1 nM

Supply measured IC50 of CN1CCC[C@@]1(C)c1nnc2ccc(O[C@@H]3CC[C@H](NC(=O)Nc4cc(C(C)(C)C)nc(C(=O)NCCO)n4)c4ccccc43)cn12 in your reply.
< 1 nM

Supply measured IC50 of CN(CCO)Cc1nc(NC(=O)N[C@H]2CC[C@@H](Oc3ccc4nnc(C(C)(C)C)n4c3)c3ccccc32)cc(C(C)(C)C)n1 in your reply.
1 to 10 nM
